Test system: A2780-DX5 (ovarian carcinoma resistant to doxorubicin)
Test: Cytotoxicity evaluation (cell growth inhibition, SRB, 72 h)
Assay type: cell-based
Details: Homo sapiens, 72 h, read-out: IC50, growth of human tumor cell line A2780-DX5 (ovarian)
Description: Taxoids, thus synthesized, were evaluated for their cytotoxicity against human tumor cell line, A2780 (ovarian carcinoma), A2780-DX5 (ovarian carcinoma resistant to doxorubicin), MCF7 (mammary carcinoma) or MCF7-R (mammary carcinoma cells resistant to doxorubicin), after 72 hours drug exposure according to the methods of Skehon, et al., "J. Nat. Cancer Inst. […] Assessment of cytotoxicity, i.e., cell growth inhibition, was determined according to the methods of Skehan, et al. as discussed in J. Nat. […]
PARAMETER: IC50 (nM)
Write down the numeric answer in nM and omit the unit.

**Q:** If you can, please state the reported IC50 value of COc1cccc2c1C(=O)c1c(O)c3c(c(O)c1C2=O)C[C@@](O)(C(=O)CO)C[C@@H]3O[C@H]1C[C@H](N)[C@H](O)[C@H](C)O1 [Doxorubicin, reference compound] .
**A:** 357
